test-method-notes: Pharmacokinetic study of nine absorbed components in rat serum after oral RMC extract (UHPLC-DAD)
applied-conditions: male, Sprague-Dawley, rat, serum, po, 10 mL/kg, T1/2, BHS-RMC group (BHS model rats), serum, oral RMC extract 10 mL/kg (equal to 6 g/mL of RMC) once a day for 7 days, n = 6
The following compounds are listed with their measured half-life values.
measurement-type: half-life

>  <compound>
O=C(O)c1cc(O)c(O)c(O)c1

>  <measurement-type>
half-life

>  <result>
6.33 h

$$$$
>  <compound>
O=c1c(O)c(-c2ccc(O)c(O)c2)oc2cc(O)cc(O)c12

>  <measurement-type>
half-life

>  <result>
15.5 h

$$$$
>  <compound>
COc1ccc(C(C)=O)c(O)c1

>  <measurement-type>
half-life

>  <result>
4.37 h

$$$$
>  <compound>
C[C@@]12C[C@@]3(O)O[C@@H](O1)[C@]1(COC(=O)c4ccccc4)[C@H]3C[C@@]12O[C@@H]1O[C@H](CO)[C@@H](O)[C@H](O)[C@H]1O

>  <measurement-type>
half-life

>  <result>
3.6 h

$$$$
>  <compound>
Cc1oc2c(O)cccc2c(=O)c1O [3,8-Dihydroxy-2-methylchromone, 3,8-dihydroxy-2-methylchromone]

>  <measurement-type>
half-life

>  <result>
19 h

$$$$
>  <compound>
COC(=O)c1ccc(O)cc1

>  <measurement-type>
half-life

>  <result>
17.9 h

$$$$
>  <compound>
O=Cc1ccc(CO)o1 [5-HMF, 5-hydroxymethylfurfural]

>  <measurement-type>
half-life

>  <result>
7.33 h

$$$$

* * *

test-method-notes: Pharmacokinetic study of nine absorbed components in rat serum after oral RMC extract (UHPLC-DAD)
applied-conditions: male, Sprague-Dawley, rat, serum, po, 10 mL/kg, MRT, N-RMC group (normal rats), serum, oral RMC extract 10 mL/kg (equal to 6 g/mL of RMC) once a day for 7 days, n = 6
Field 'label' (enum: Met / Not met). Set to Met when MRT is strictly under 10 h; else Not met.

>  <compound>
O=c1c(O)c(-c2ccc(O)c(O)c2)oc2cc(O)cc(O)c12

>  <category>
Not met

$$$$
>  <compound>
O=C(O)c1ccccc1

>  <category>
Not met

$$$$
>  <compound>
COC(=O)c1ccc(O)cc1

>  <category>
Met

$$$$
>  <compound>
COc1ccc(C(C)=O)c(O)c1

>  <category>
Not met

$$$$
>  <compound>
O=C(O)c1cc(O)c(O)c(O)c1

>  <category>
Not met

$$$$
>  <compound>
O=Cc1ccc(CO)o1 [5-HMF, 5-hydroxymethylfurfural]

>  <category>
Met

$$$$
>  <compound>
Cc1oc2c(O)cccc2c(=O)c1O [3,8-Dihydroxy-2-methylchromone, 3,8-dihydroxy-2-methylchromone]

>  <category>
Met

$$$$
>  <compound>
C[C@@]12C[C@@]3(O)O[C@@H](O1)[C@]1(COC(=O)c4ccccc4)[C@H]3C[C@@]12O[C@@H]1O[C@H](CO)[C@@H](O)[C@H](O)[C@H]1O

>  <category>
Not met

$$$$

* * *

Measured log10(AUC) of individual entries
test-method-notes: Pharmacokinetic study of nine absorbed components in rat serum after oral RMC extract (UHPLC-DAD);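 note: BHS model made by subcutaneous yeast suspension then two adrenaline injections with ice-water immersion, normal rats given saline instead, serum analytes quantified by UHPLC-DAD at 254 nm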
applied-conditions: male, Sprague-Dawley, rat, serum, po, 10 mL/kg, AUC, BHS-RMC group (BHS model rats), serum, oral RMC extract 10 mL/kg (equal to 6 g/mL of RMC) once a day for 7 days, n = 6
measurement-type: log10(AUC) (log10 of the value in µg·h/mL)

>  <compound>
O=c1c(O)c(-c2ccc(O)c(O)c2)oc2cc(O)cc(O)c12

>  <log10(AUC)>
4.00

$$$$
>  <compound>
C[C@@]12C[C@@]3(O)O[C@@H](O1)[C@]1(COC(=O)c4ccccc4)[C@H]3C[C@@]12O[C@@H]1O[C@H](CO)[C@@H](O)[C@H](O)[C@H]1O

>  <log10(AUC)>
2.47

$$$$
>  <compound>
Cc1oc2c(O)cccc2c(=O)c1O [3,8-Dihydroxy-2-methylchromone, 3,8-dihydroxy-2-methylchromone]

>  <log10(AUC)>
2.88

$$$$
>  <compound>
COC(=O)c1ccc(O)cc1

>  <log10(AUC)>
1.60

$$$$
>  <compound>
COc1ccc(C(C)=O)c(O)c1

>  <log10(AUC)>
1.66

$$$$
>  <compound>
O=C(O)c1ccccc1

>  <log10(AUC)>
3.37

$$$$
>  <compound>
O=C(O)c1cc(O)c(O)c(O)c1

>  <log10(AUC)>
3.03

$$$$
>  <compound>
O=Cc1ccc(CO)o1 [5-HMF, 5-hydroxymethylfurfural]

>  <log10(AUC)>
2.87

$$$$

The measured values listed here are drawn from paper PMC9476706.
